Documented melting point across a set of compounds

Worked set:
Prompt: Please report the recorded melting point for "N#Cc1cnc(-c2ccccc2)nc1" .
Response: 189 to 191 °C

Prompt: Consider the compound "O=c1nc(Cl)sc2ccccc12" and give its measured melting point.
Response: 108 to 110 °C

***
Prompt: Query: melting point; subject: "O=C1CNC(=O)N1Cc1ccc(Cl)c([N+](=O)[O-])c1"
Response: 183 to 185 °C

Prompt: Quick one: melting point for "Cc1nn(-c2ccccc2)cc1N" ?
Response: 81 to 83 °C

Prompt: Entry "COc1cc(Cl)c(Cl)cc1C(=O)O" has what melting point?
Response: 148 to 150 °C

Prompt: Given the compound "NCc1ncc(-c2ccccc2)[nH]1" , what is its reported melting point?
Response: 142 to 144 °C

###

Catalogue of melting point readings, one per entry.

Prompt: Name the reported melting point value associated with the compound "COCCCC(N)=NO"
Response: 84 to 86 °C

More entries:
Prompt: Bench note: what melting point did "COc1ccc(C(C)=O)cc1Cn1cccn1" show?
Response: 80 to 82 °C

Prompt: Requested field: melting point. Item: CC(NC(=O)c1cccc(Cl)c1Cl)C(=O)O (stereo not drawn)
Response: 152 to 154 °C

###

Catalogue of molecules with associated melting point

Below: 5 molecules and their reported melting point.
Prompt: Dear colleague, I am looking for the recorded melting point of the following molecule: "CCOP(=O)(Cc1cc(Cl)ccc1Cl)OCC"
Response: 53 to 55 °C

Prompt: Find the recorded melting point belonging to NC(=O)C(Cl)c1ccc(F)cc1 (stereo not drawn) and report it.
Response: 93 to 95 °C

Prompt: For the molecule shown here, "COc1cc(S(=O)(=O)Cl)c(Cl)cc1C(=O)O" , give the reported melting point.
Response: 159 to 161 °C

Prompt: For the molecule shown here, "O=C(O)CCNC(=O)C1CCCC1" , give the reported melting point.
Response: 128 to 130 °C

Prompt: Param item = "Nc1ccc(F)c(NC(=O)C2CCCCC2)c1" ; retrieve measured melting point.
Response: 157 to 159 °C

More entries:
Prompt: Requested read-out: melting point. Entry: "O=c1[nH]c(=O)c2ccccc2s1"
Response: 292 to 294 °C

Prompt: Recorded melting point of O=C(O)C1CCCSC1 (stereo not drawn) , please.
Response: 76 to 78 °C

###

# Lookup of reported melting point keyed by entry

Would you please look over these solved cases?
Prompt: Name the recorded melting point for "O=Cc1cccc(OCCC(=O)O)c1" .
Response: 98 to 100 °C

Prompt: May I ask what melting point has been recorded for "O=C(CCl)Nc1cccc(S(=O)(=O)N=C2CCCCCN2)c1" ?
Response: 133 to 135 °C

Prompt: Give the measured melting point of CCC1(C)NC(=O)N(CCCN)C1=O (centres undefined) .
Response: 63 to 65 °C

Okay, now this compound:
Prompt: Give its melting point value. Item: "COc1ccc2c(c1)OCC(C(=O)O)=C2"
Response: 201 to 203 °C

###

As shown below, each of these molecules has a reported melting point value.

Recorded results for 6 molecules are shown here.
Prompt: Tell me the measured melting point of "c1ccc(NCc2cccs2)nc1" , please.
Response: 76 to 78 °C

Prompt: Give its melting point value. Item: "N#Cc1ccc(OCCBr)cc1"
Response: 55 to 59 °C

Prompt: For "ClCc1nnnn1-c1ccccc1Br" , what is its reported melting point?
Response: 45 to 47 °C

Prompt: Field request: melting point | item: "Cc1ccc(S(=O)(=O)NCCC(=O)O)cc1"
Response: 148 to 150 °C

Prompt: Could you tell me which melting point is on file for Cc1cc(C(=O)CCl)c(C)n1CC1CCCO1 (stereo not drawn) ?
Response: 88 to 90 °C

Prompt: Looking for the measured melting point of "COc1ccc(NC(C)=O)cc1N" , can you help?
Response: 106 to 108 °C

---
Prompt: Which measured melting point value corresponds to "CCc1ccc(-c2noc(S)n2)cc1" ?
Response: 159 to 161 °C

Prompt: # input molecule: "Nc1ncc(Cc2cccc(Cl)c2)s1" ; wanted: its melting point
Response: 99 to 101 °C

Prompt: Endpoint output: melting point of "Nc1nc(C2CC2)c(C(=O)O)s1" . Value?
Response: 99 to 101 °C

Prompt: Which melting point is reported for this molecule? O=C(O)C1CCCCN1S(=O)(=O)c1ccc(Br)cc1 (stereo not drawn)
Response: 133 to 135 °C

Prompt: I'd like to know its melting point. The molecule in question is "O=C(O)CCC(=O)c1ccc2c(c1)CCCC2"
Response: 122 to 124 °C

Prompt: Please give the measured melting point for this molecule: "CCOc1cccc(C=O)n1"
Response: 55 to 57 °C

Prompt: Entry "Nc1ccc(CN2C(=O)Cc3ccc(Cl)cc32)cc1" : reported melting point = ?
Response: 129 to 131 °C
